Listed here: items and their measured inhibition at 1 µM.
# System Under Test: kinase domain protein of RC kinase (Homo sapiens, UniProt Q56UN5)
# Sequence (Q56UN5 1061-1324 limits assumed): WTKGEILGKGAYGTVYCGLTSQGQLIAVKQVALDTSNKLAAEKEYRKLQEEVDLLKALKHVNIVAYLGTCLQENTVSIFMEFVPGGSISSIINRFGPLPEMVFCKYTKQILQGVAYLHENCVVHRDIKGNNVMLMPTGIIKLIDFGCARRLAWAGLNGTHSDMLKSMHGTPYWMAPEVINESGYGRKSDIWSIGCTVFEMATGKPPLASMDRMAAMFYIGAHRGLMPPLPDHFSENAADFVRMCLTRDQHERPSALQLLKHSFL
# Test Description: Enzymatic assay for kinase inhibitory activity (Crebtide substrate, LANCE read-out)
# Assay type: biochemical
# Measurement Parameters: compound at 1 μM

These solved cases illustrate the format of a correct answer.
NC(=O)c1c(Nc2cccc(Cl)c2)n[nH]c1/N=C/c1cccc2ccccc12 : 5 to 20%
COc1cccc(/C=N/c2[nH]nc(Nc3cccc(Cl)c3)c2C(N)=O)c1O : 5 to 20%
NC(=O)c1c(Nc2cccc(Cl)c2)n[nH]c1/N=C/c1ccccc1O : 5 to 20%

INPUT: Entry under review: NC(=O)c1c(Nc2cccc(Cl)c2)n[nH]c1/N=C/c1c[nH]cn1 . Reported inhibition at 1 µM?
OUTPUT: 20 to 50%

Origin of measurements: patent US9365556B2
